Molecular target: human kappa opioid receptor (KOR) (Homo sapiens)
// reported Ki for each item listed
Quick reminder: number only, in nM, skip the unit.

- O=C(C1CC1)N1CC[C@]23c4c5ccc(O)c4O[C@H]2c2[nH]c4ccccc4c2C[C@@]3(O)[C@H]1C5: 2000

// switching to the query compound
Requested read-out: Ki. Entry: O=C(C1CC1)N1CC[C@]23c4c5ccc(O)c4O[C@H]2c2ncc(-c4ccc(Cl)cc4)cc2C[C@@]3(O)[C@H]1C5
2500

----------
// reported pKi for each item listed
Molecular target: human DOR (delta opioid receptor) (Homo sapiens, UniProt P41143)
Construct: full-length receptor expressed in CHO-K1 cells
Experiment: competition radioligand binding, 3H-diprenorphine, membranes
Remember the convention: pKi equals -log10 of concentration in molar.

• O=C(C1CC1)N1CC[C@]23c4c5ccc(O)c4O[C@H]2c2[nH]c4ccccc4c2C[C@@]3(O)[C@H]1C5 = 7.96

// switching to the query compound
Requested read-out: pKi. Entry: O=C(C1CC1)N1CC[C@]23c4c5ccc(O)c4O[C@H]2c2ncc(-c4ccc(Cl)cc4)cc2C[C@@]3(O)[C@H]1C5
7.62
